Just for reference, the supplement of paper PMC9233669 is where these values come from.

sequences and their reported self-aminoacylation
Tested on: biotinyl-Met-oxazolone
Assay: self-aminoacylation, catalytic enhancement (BMO) (fold over background); higher = more active; k-Seq, kA / k0A0; sequences stand for … in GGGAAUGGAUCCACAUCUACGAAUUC…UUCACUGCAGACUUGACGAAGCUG
Variants at the floor of the assay were thinned out.

SEQUENCE_CODE: AUUACCCUGCUCAGCGAGUGA [Fam2.1 aminoacylation ribozyme variant]
self-aminoacylation: 3.61
--
SEQUENCE_CODE: CCACACUUCAAGUAAUCGGUA [Fam1B.1 aminoacylation ribozyme variant]
self-aminoacylation: 1.09
--
SEQUENCE_CODE: CGACUUCAAACAAUCGGUAUG [Fam1A.1 aminoacylation ribozyme variant]
self-aminoacylation: 1.16
--
SEQUENCE_CODE: AAUCACCUAGGUCUUCGGGUG [Fam2.2 aminoacylation ribozyme variant]
self-aminoacylation: 4.54
--
SEQUENCE_CODE: AUCACCUUGGUCAUCGAGUGA [Fam2.1 aminoacylation ribozyme variant]
self-aminoacylation: 5.76
--
SEQUENCE_CODE: AAGUUUGGUAAUACUCGCAAG [Fam3.1 aminoacylation ribozyme variant]
self-aminoacylation: 0.998
--
SEQUENCE_CODE: AAAUUUGCCAAUAGUCGCAAG [Fam3.1 aminoacylation ribozyme variant]
self-aminoacylation: 1.69
--
SEQUENCE_CODE: AUUACCCUGGUCUUCGAGUCA [Fam2.1 aminoacylation ribozyme variant]
self-aminoacylation: 0.844
--
SEQUENCE_CODE: AUUACCCUCGUCUUCGAGUGA [Fam2.1 aminoacylation ribozyme variant]
self-aminoacylation: 5.15

----------
System: biotinyl-Trp-oxazolone
Assay: self-aminoacylation, catalytic enhancement (BWO) (fold over background); higher = more active; k-Seq, kA / k0A0; sequences stand for … in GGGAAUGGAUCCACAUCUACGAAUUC…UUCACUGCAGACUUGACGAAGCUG
Variants at the floor of the assay were thinned out.
MEASURED_QUANTITY: self-aminoacylation

SEQUENCE_CODE: AGUCCCCUGGUCAUCGAGUGA [Fam2.1 aminoacylation ribozyme variant]
READOUT_VALUE: 7.41
--
SEQUENCE_CODE: AUUACCCUGGUUAUCGAGUGA [Fam2.1 aminoacylation ribozyme variant]
READOUT_VALUE: 10.3
--
SEQUENCE_CODE: AUACUUCAAACAAUUGGUCUG [Fam1A.1 aminoacylation ribozyme variant]
READOUT_VALUE: 1.16
--
SEQUENCE_CODE: AUUACCCCGGUCGUCGAGUGA [Fam2.1 aminoacylation ribozyme variant]
READOUT_VALUE: 0.938
--
SEQUENCE_CODE: AAUUUCGCUAAUAGUCGCAAG [Fam3.1 aminoacylation ribozyme variant]
READOUT_VALUE: 1.9
--
SEQUENCE_CODE: CCACCCUACAAGCAAUCGGUC [Fam1B.1 aminoacylation ribozyme variant]
READOUT_VALUE: 1.16
--
SEQUENCE_CODE: GUUACCCCGGUCAUCGAGUGA [Fam2.1 aminoacylation ribozyme variant]
READOUT_VALUE: 8.27
--
SEQUENCE_CODE: AGGUUUGCUCAUAGUCGCAAG [Fam3.1 aminoacylation ribozyme variant]
READOUT_VALUE: 2.45
--
SEQUENCE_CODE: AUUCGCCUAGGUCAUCCGGUG [Fam2.2 aminoacylation ribozyme variant]
READOUT_VALUE: 10.3
--
SEQUENCE_CODE: ACACACUUCAAGGAAUCGGUC [Fam1B.1 aminoacylation ribozyme variant]
READOUT_VALUE: 2.96
--
SEQUENCE_CODE: CAACUUCAAACAAUCGCUCUG [Fam1A.1 aminoacylation ribozyme variant]
READOUT_VALUE: 2.41
--
SEQUENCE_CODE: AUUCACCUAGGUCAUGGGGUC [Fam2.2 aminoacylation ribozyme variant]
READOUT_VALUE: 1
--
SEQUENCE_CODE: AUUCACCGAGGUCAUGGGGUG [Fam2.2 aminoacylation ribozyme variant]
READOUT_VALUE: 11.4
--
SEQUENCE_CODE: AAAUUUGCUAAUAGUCGCCAG [Fam3.1 aminoacylation ribozyme variant]
READOUT_VALUE: 2.92
--
SEQUENCE_CODE: GCACACUUCAAGCACUCGGUC [Fam1B.1 aminoacylation ribozyme variant]
READOUT_VALUE: 3.42
--
SEQUENCE_CODE: UUUCACCUAGGUCACCGGGUG [Fam2.2 aminoacylation ribozyme variant]
READOUT_VALUE: 5.47
--
SEQUENCE_CODE: AUAACCCUGGUCUUCGAGUGA [Fam2.1 aminoacylation ribozyme variant]
READOUT_VALUE: 6.89
--
SEQUENCE_CODE: CUACCCUUCAAGCAAUCGGUC [Fam1B.1 aminoacylation ribozyme variant]
READOUT_VALUE: 5.52
--
SEQUENCE_CODE: AUUUGCCUGGUCAUCGAGUGA [Fam2.1 aminoacylation ribozyme variant]
READOUT_VALUE: 9.16
--
SEQUENCE_CODE: UUUCAGCUAGGUCAUCGGGUG [Fam2.2 aminoacylation ribozyme variant]
READOUT_VALUE: 7.4
--
SEQUENCE_CODE: AUUACCCUGGUAAUCGAGUGU [Fam2.1 aminoacylation ribozyme variant]
READOUT_VALUE: 4.99
--
SEQUENCE_CODE: CCGCACUUCAAGCACUCGGUC [Fam1B.1 aminoacylation ribozyme variant]
READOUT_VALUE: 1.55
--
SEQUENCE_CODE: AUUCACAUAGGGCAUCGGGUG [Fam2.2 aminoacylation ribozyme variant]
READOUT_VALUE: 4.52
--
SEQUENCE_CODE: CUACUUAAAACAAUCGGGCUG [Fam1A.1 aminoacylation ribozyme variant]
READOUT_VALUE: 0.924
--
SEQUENCE_CODE: CCACUCUUCAAGCAAUCGGCC [Fam1B.1 aminoacylation ribozyme variant]
READOUT_VALUE: 4.14
--
SEQUENCE_CODE: CAGUUUGCUAAUAGUCGUAAG [Fam3.1 aminoacylation ribozyme variant]
READOUT_VALUE: 2.28
--
SEQUENCE_CODE: GUUAGCCUGGUCAUCGAGUGA [Fam2.1 aminoacylation ribozyme variant]
READOUT_VALUE: 8.56
--
SEQUENCE_CODE: AUUGCCCUAGGUCAUCGGGUG [Fam2.2 aminoacylation ribozyme variant]
READOUT_VALUE: 7.92
--
SEQUENCE_CODE: UCACACUUCAUGCAAUCGGUC [Fam1B.1 aminoacylation ribozyme variant]
READOUT_VALUE: 0.656
--
SEQUENCE_CODE: CUUCUUCAAACAAUCGGUCAG [Fam1A.1 aminoacylation ribozyme variant]
READOUT_VALUE: 2.59
--
SEQUENCE_CODE: AUUACCCUGGUCAGCGACUGA [Fam2.1 aminoacylation ribozyme variant]
READOUT_VALUE: 1.94
--
SEQUENCE_CODE: AUUACCGUGGUUAUCGAGUGA [Fam2.1 aminoacylation ribozyme variant]
READOUT_VALUE: 11.4
--
SEQUENCE_CODE: AUGACUCUGGUCAUCGAGUGA [Fam2.1 aminoacylation ribozyme variant]
READOUT_VALUE: 5.56
--
SEQUENCE_CODE: AUAACGCUGGUCAUCGAGUGA [Fam2.1 aminoacylation ribozyme variant]
READOUT_VALUE: 5.24
--
SEQUENCE_CODE: AAGUUUGCUAAUAGGCGCACG [Fam3.1 aminoacylation ribozyme variant]
READOUT_VALUE: 0.485
